Give relative viability for every item shown.
test system: EMC-BAC-2; assay: relative viability (nuclei count vs DMSO), 5 days (fraction); higher = more cells survive; conditions: first compound 4 µM
Answer using only a numeral; do not append any unit.

Query block: Consider the molecule shown here: C[C@@H]1CN(CC(=O)Nc2ccc3c(c2)Cc2cccc(-c4cc(=O)cc(N5CCOCC5)o4)c2S3)C[C@H](C)O1 + NC(=O)Nc1cc(-c2cccc(F)c2)sc1C(=O)N[C@H]1CCCNC1 [AZD7762] (partner 0.2 µM) What is its recorded relative viability?
Result block: 1.24

Query block: Cool, now C[C@@H]1CN(CC(=O)Nc2ccc3c(c2)Cc2cccc(-c4cc(=O)cc(N5CCOCC5)o4)c2S3)C[C@H](C)O1 + C[C@@H](Oc1cc(-c2cnn(C3CCNCC3)c2)cnc1N)c1c(Cl)ccc(F)c1Cl [Crizotinib] (partner 1 µM)
Result block: 0.819

Query block: Same lookup for C[C@@H]1CN(CC(=O)Nc2ccc3c(c2)Cc2cccc(-c4cc(=O)cc(N5CCOCC5)o4)c2S3)C[C@H](C)O1 + C[C@]1(O)C[C@@H](c2nc(-c3ccc4ccc(-c5ccccc5)nc4c3)c3c(N)nccn32)C1 [Linsitinib] (partner 1 µM) , please.
Result block: 0.77

Query block: Please give the result for C[C@@H]1CN(CC(=O)Nc2ccc3c(c2)Cc2cccc(-c4cc(=O)cc(N5CCOCC5)o4)c2S3)C[C@H](C)O1 + CCNC(=O)c1noc(-c2cc(C(C)C)c(O)cc2O)c1-c1ccc(CN2CCOCC2)cc1 [Luminespib] (partner 0.01 µM) too.
Result block: 1.19

The reported measurements were obtained from the supplement of paper PMC10307832.
